Attribution: patent US20250258178A1

assay_target: T1, human histidine-rich glycoprotein (HRG), purified from human plasma (human, UniProt P04196 19-525)
T1 construct: also called human purified HRG; human purified HRG protein
T1 sequence: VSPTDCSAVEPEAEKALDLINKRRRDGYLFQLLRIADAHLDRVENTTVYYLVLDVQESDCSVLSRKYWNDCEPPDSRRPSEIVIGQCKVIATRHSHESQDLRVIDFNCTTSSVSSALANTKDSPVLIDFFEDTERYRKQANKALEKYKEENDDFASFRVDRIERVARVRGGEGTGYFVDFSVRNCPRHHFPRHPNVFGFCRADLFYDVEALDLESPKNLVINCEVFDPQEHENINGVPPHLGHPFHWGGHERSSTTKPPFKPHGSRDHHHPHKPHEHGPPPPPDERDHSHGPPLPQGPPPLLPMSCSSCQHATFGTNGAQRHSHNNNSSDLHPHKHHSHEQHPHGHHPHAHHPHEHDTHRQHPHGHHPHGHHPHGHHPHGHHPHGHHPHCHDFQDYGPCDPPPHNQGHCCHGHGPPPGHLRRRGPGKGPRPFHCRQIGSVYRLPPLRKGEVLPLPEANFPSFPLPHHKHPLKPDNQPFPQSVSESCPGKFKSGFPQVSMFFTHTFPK
method_description: sandwich ELISA, HRG captured by solid phase 93-4C
The reader will find reported absorbance at 450 nm (OD450) values listed item by item below.

>  <binder>
anti-HRG monoclonal antibody 6-12A-10B-9G (antibody, V domains shown, Mouse hybridoma monoclonal; biotin-labeled as detection antibody and for bead immobilisation) VH: EVQLQESGPGLVKPSQSLSLTCTVTGYSITSDYAWNWIRQFPGNKLEWMGYISYSGSTNYNPSLRSRISITRDTSKNQFFLQLISVTTEDTATYYCGSASYRYAWFAYWGQGTLVTVSA VL: DIQVTQTTSSLSASLGDRVTISCRASQDISNYLNWYQQKPDGTVKLLIYYTSRLHSGVPSRFSGSGSGTDYSLTISNLEQEDIATYFCQQGNTLPTFGGGTKLEIK

>  <absorbance at 450 nm (OD450)>
≥ 3 od

$$$$
>  <binder>
anti-HRG monoclonal antibody 65-3A (antibody, V domains shown, Mouse hybridoma monoclonal) VH: QVILKESGPGILQPSQTLSLTCSFSGFSLSTSGVGVSWIRQPSGKGLEWLAHIYWDDDKHYNPSLKSRLTISKDTSRNQVFLRITSVDTADTATYYCALGTVGGPWFPYWGQGTLVTVSA VL: DVQMNQSHKFMSTSVGDRVSITCKASQDVSTAVAWYQQKPGQSPKILIYWASIRHTGVPDRFTGSGSGTDYTLTISSVQAEDLTLYYCQQHYSTPWTFGGGTKLEIK

>  <absorbance at 450 nm (OD450)>
2 to 3 od

$$$$
>  <binder>
anti-HRG monoclonal antibody 50-6C-2A (antibody, V domains shown, Mouse hybridoma monoclonal) VH: EVQLQESGPGLVKPSQSLSLTCTVTGYSITSDYAWNWIRQFPGNKLEWMGYISYSGSTNYNPSLKSRISITRDTSKNQFFLQLNSVTTEDTATYYCASASYRYAWFAYWGQGTLVTVST VL: DIQMTQTTSSLSASLGDRVTISCRASQDISNYLNWYQQKPDGTVKLLIYYTSRLHSGVPSRFSGSGSGTDYSLTISNLEQEDIGTYFCQQGNTLPTFGGGTKLEIK

>  <absorbance at 450 nm (OD450)>
2 to 3 od

$$$$
>  <binder>
anti-HRG monoclonal antibody 69-1A (antibody, V domains shown, Mouse hybridoma monoclonal; also called clone No. 69-1A) VH: EVKLEESGGGLVQPGGSMKLSCAASGFTFSDAWMDWVRQSPEKGLEWVAEIRSKANNHGTYYAESVKGRFTISRDDSKSSVYLRMNSLSAEDTGIYYCTRPFAYWGQGTLVTVSA VL: DVVVTQTPLSLPVSLGDQASISCRSSQSLVHIDGNTYFHWYVQKPGQSPKLLIYKVSNRFSGVPDRFSGSGSGTDFTLKISRVEAEDLGVYFCSQSTHVPLTFGAGTKLELK

>  <absorbance at 450 nm (OD450)>
1 to 2 od

$$$$
>  <binder>
anti-HRG monoclonal antibody 75-2D (antibody, V domains shown, Mouse hybridoma monoclonal; also called clone No. 75-2D) VH: QVQLQQSGAELMKPGASVKISCKATGYTFSSYWIEWVKQRPGHGLEWIGEILPGSGRTNYNEKFKGKATFTADTSSNTAYMQLSSLTSEDSAVYYCARYSYFYYFDYWGQGTTLTVSS VL: DNVLTQSPAIMSASLGERVTMTCTASSSVSSSYLHWYQQKPGSSPKLWIYSTSNLASGVPARFSGSGSGTSYSLTISSMEAEDAATYYCHQYHRSPWTFGGGTKLEIK

>  <absorbance at 450 nm (OD450)>
1 to 2 od

$$$$
>  <binder>
anti-HRG monoclonal antibody 67-8A-5F (antibody, V domains shown, Mouse hybridoma monoclonal) VH: EVQLQESGPGLVKPSQSLSLTCTVTGYSITSDYAWNWIRQFPGNKLEWMGYISYSGSTSYNPSLKSRISITRDTSKNQFFLQLNSVTTEDTATYYCASASYRYAWFAYWGQGTLVTVSA VL: DIQMTQTTSSLSASLGDRVTISCRASQDISNYLNWYQQKPDGTVKLLIYYTSRLLSGVPSRFSGSGSGTDYSLTISNLEQEDIATYFCQQGNTLPTFGGGTKLEIK

>  <absorbance at 450 nm (OD450)>
2 to 3 od

$$$$
